biological target: Aldose reductase (Oryctolagus cuniculus, UniProt P15122); construct: Aldose reductase is isolated by homogenizing the lens in 3 volumes of water; from tissue; host or cells: lens of mature New Zealand rabbits; assay: Aldose reductase inhibition, in vitro (loss of absorbance at 340 millimicrons, glyceraldehyde substrate, NADPH); assay type: biochemical, New Zealand rabbits (lens); conditions: 1 × 10^-4 molar concentration of xanthone compound; pH 6.0, 37° C
Decision: inhibition at 100 µM compared against 90%; not below it gives 1.0, below it gives 0.0.

Study these solved cases before continuing.
compound=COc1cccc2c(=O)c3cc(C(=O)O)ccc3oc12 assigned_label=0.0
compound=O=C(O)c1ccc2oc3ccc(S(=O)(=O)O)cc3c(=O)c2c1 assigned_label=0.0
compound="CCCCCOc1cc([S+](C)[O-])cc2c(=O)c3cc(C(=O)O)ccc3oc12 (stereo not drawn)" assigned_label=1.0
compound=CSc1cc(OC(C)C)c2oc3ccc(C(=O)O)cc3c(=O)c2c1 assigned_label=0.0

Task: Is inhibition at 100 µM for "CSc1cc(C(C)C)c2oc3ccc(C(=O)O)cc3c(=O)c2c1" at or above 90%?
Output: 1.0

Task: Next compound up: CCCCCCCCOc1cc([S+](C)[O-])cc2c(=O)c3cc(C(=O)O)ccc3oc12 (stereo not drawn)
Output: 1.0

Task: Next compound up: "CSc1cc(OC(C)C)cc2c(=O)c3cc(C(=O)O)ccc3oc12"
Output: 0.0

Task: Next compound up: "CCCCN(C)S(=O)(=O)c1ccc2oc3ccc(C(=O)O)cc3c(=O)c2c1"
Output: 1.0

Task: Next compound up: "COc1ccc2oc3ccc(C(=O)O)cc3c(=O)c2c1"
Output: 0.0

====

target: Aldose reductase (Oryctolagus cuniculus); construct: Aldose reductase is isolated by homogenizing the lens in 3 volumes of water; from tissue; host or cells: lens of mature New Zealand rabbits; test: Aldose reductase inhibition, in vitro (loss of absorbance at 340 millimicrons, glyceraldehyde substrate, NADPH); format: biochemical, New Zealand rabbits (lens); details: 1 × 10^-5 molar concentration of xanthone compound; pH 6.0, 37° C
Recorded inhibition at 10 µM, one value per entry.
Give the quantity in %, number only.

Solved cases (2 shown):
entry_smiles=CSc1cc(OC(C)C)cc2c(=O)c3cc(C(=O)O)ccc3oc12 assayed_target="Aldose reductase (Oryctolagus cuniculus)" metric_name="inhibition at 10 µM" reading_unit=% measured_result=60
entry_smiles=O=C(O)c1ccc2oc3ccc(S(=O)(=O)O)cc3c(=O)c2c1 assayed_target="Aldose reductase (Oryctolagus cuniculus)" metric_name="inhibition at 10 µM" reading_unit=% measured_result=43

# context switch: different molecule, same inhibition at 10 µM
Task: For the record "CSc1cc(C(C)C)c2oc3ccc(C(=O)O)cc3c(=O)c2c1" , what value of inhibition at 10 µM is listed for Aldose reductase (Oryctolagus cuniculus)?
Output: 67

====

Recorded inhibition at 100 µM, one value per entry.
target: Aldose reductase (Oryctolagus cuniculus); construct: Aldose reductase is isolated by homogenizing the lens in 3 volumes of water; from tissue; host or cells: lens of mature New Zealand rabbits; test: Aldose reductase inhibition, in vitro (loss of absorbance at 340 millimicrons, glyceraldehyde substrate, NADPH); assay type: biochemical, New Zealand rabbits (lens); details: 1 × 10^-4 molar concentration of xanthone compound; pH 6.0, 37° C
Give the quantity in %, number only.

compound=CC(C)Oc1ccc2oc3ccc(C(=O)O)cc3c(=O)c2c1 metric_name="inhibition at 100 µM" measured_result=89
compound="CC(C)CCOc1cc([S+](C)[O-])cc2c(=O)c3cc(C(=O)O)ccc3oc12 (stereo not drawn)" metric_name="inhibition at 100 µM" measured_result=90

# context switch: different compound, same inhibition at 100 µM
Task: Could you tell me which inhibition at 100 µM is on file for "CC(C)N(C)S(=O)(=O)c1ccc2oc3ccc(C(=O)O)cc3c(=O)c2c1" ?
Output: 89

From: patent US4250097A
